Reference source: ChEMBL document CHEMBL3352194

# MEASURED_TARGET: CYP2D6 (Homo sapiens)
# Sequence (P10635 whole entry): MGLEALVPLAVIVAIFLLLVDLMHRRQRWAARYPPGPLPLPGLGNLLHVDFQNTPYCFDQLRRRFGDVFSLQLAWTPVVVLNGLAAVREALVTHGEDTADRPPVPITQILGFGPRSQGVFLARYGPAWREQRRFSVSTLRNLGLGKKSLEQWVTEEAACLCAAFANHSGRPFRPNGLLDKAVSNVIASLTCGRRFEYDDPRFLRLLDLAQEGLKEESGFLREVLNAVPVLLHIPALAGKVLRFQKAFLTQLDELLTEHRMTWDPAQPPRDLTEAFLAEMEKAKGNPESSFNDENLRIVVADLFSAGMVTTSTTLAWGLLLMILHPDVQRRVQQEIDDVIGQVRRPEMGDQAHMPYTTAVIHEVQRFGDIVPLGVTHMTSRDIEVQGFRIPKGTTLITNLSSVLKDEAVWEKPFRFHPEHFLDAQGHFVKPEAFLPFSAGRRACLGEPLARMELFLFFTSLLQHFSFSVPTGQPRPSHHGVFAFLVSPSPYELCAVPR
# TEST_NAME: Inhibition of CYP2D6 (unknown origin) using bufuralol substrate at 10 uM
# Assay type: ADME
# COND: probe bufuralol
OBSERVATION_TYPE: inhibition at 10 µM (%)

Check out these entries, answers already filled in.
[
  {
    "MOLECULE": "O=S(=O)(Nc1ccncn1)c1cc(F)c(OC[C@@H]2CNCC[C@H]2c2ccc(Cl)cc2)cc1F (relative stereo)",
    "inhibition at 10 µM / %": 94
  },
  {
    "MOLECULE": "O=S(=O)(Nc1ncns1)c1cc(F)c(OC[C@@H]2CCNC[C@H]2c2ccc(F)cc2)cc1F (relative stereo)",
    "inhibition at 10 µM / %": 61
  },
  {
    "MOLECULE": "Cc1ccc([C@H]2CCNC[C@@H]2COc2cc(F)c(S(=O)(=O)Nc3ncns3)cc2F)cc1 (relative stereo)",
    "inhibition at 10 µM / %": 81
  }
]

P. O=S(=O)(Nc1ncns1)c1cc(F)c(OC[C@@H]2CNC[C@H]2c2ccc(Cl)cc2)cc1F (relative stereo)
Q. O=C1C[C@@H](c2ccc(F)cc2)[C@H](COc2cc(F)c(S(=O)(=O)Nc3ncns3)cc2F)CN1 (relative stereo)
**Query** Among P and Q , which shows a numerically higher inhibition at 10 µM result? Your answer should be the label attached to the chosen record.
**Result** P

P. O=S(=O)(Nc1ncns1)c1cc(F)c(OC[C@@H]2CCCC[C@H]2c2ccc(Cl)cc2)cc1F (relative stereo)
Q. O=S(=O)(Nc1ncc(F)cn1)c1cc(F)c(OC[C@@H]2CNCC[C@H]2c2ccc(Cl)cc2)cc1F (relative stereo)
**Query** Given P and given Q , which shows the smaller recorded inhibition at 10 µM? Your answer should be the label attached to the chosen record.
**Result** Q
(Q: 35%, P: 66%)

P. O=S(=O)(Nc1ncns1)c1cc(F)c(OC[C@@H]2CN(CC(F)(F)F)CC[C@H]2c2ccc(Cl)cc2)cc1F (relative stereo)
Q. O=S(=O)(Nc1ncns1)c1cc(F)c(OC[C@H]2CNCC[C@@H]2c2ccc(Cl)c(F)c2)cc1F (relative stereo)
**Query** Min inhibition at 10 µM? P | Q # answer = label of selected item
**Result** P

P. Cc1nsc(NS(=O)(=O)c2cc(F)c(OC[C@@H]3CNCC[C@H]3c3ccc(Cl)cc3)cc2F)n1 (relative stereo)
Q. O=S(=O)(Nc1ncns1)c1cc(F)c(OC[C@H]2CNCC[C@@H]2c2ccc(F)c(F)c2)cc1F (relative stereo)
**Query** Out of P and Q , name the one with the higher inhibition at 10 µM. Kindly give the label for the entry you pick.
**Result** Q
(Q: 85%, P: 55%)
